Values compiled from paper PMC11148114.

Target or system UniProtKB A0A0U1MWF9: recorded pIC50 listed per item.
Sequence (A0A0U1MWF9 entry or part of it): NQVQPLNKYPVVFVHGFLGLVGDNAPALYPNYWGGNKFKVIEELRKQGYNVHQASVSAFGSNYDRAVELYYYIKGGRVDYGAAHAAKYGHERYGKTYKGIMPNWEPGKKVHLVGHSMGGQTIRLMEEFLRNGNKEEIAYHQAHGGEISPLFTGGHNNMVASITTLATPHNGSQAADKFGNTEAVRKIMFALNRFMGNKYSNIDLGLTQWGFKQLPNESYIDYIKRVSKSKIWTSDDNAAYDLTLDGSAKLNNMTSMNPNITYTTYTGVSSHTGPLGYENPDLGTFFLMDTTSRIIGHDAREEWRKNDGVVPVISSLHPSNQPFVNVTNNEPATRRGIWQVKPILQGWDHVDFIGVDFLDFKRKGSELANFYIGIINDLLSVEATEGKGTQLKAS
Give only the number. pIC50 is defined as minus log10 of concentration in molar units.

> print(dat)
                                   molecule  measured.endpoint  numeric.value
1  CCCCCCCCCCC/C=C\CCCCC(=O)OC [PSM, petroselinic acid methyl ester]              pIC50           4.98

Exam item: Form field: reported pIC50 of CCCCCCCCCCC/C=C\CCCCC(=O)O [PSA, petroselinic acid]
Marked response: 5.47
